Tested on: Wolbachia pipientis
protocolDescription: Anti-Wolbachia Cell-Based Screen
Assay type: functional
Set-up: scale not given: in the data most compounds retested in dose-response had high values
recordedConditions: 5 µM
Hit rate of the full screen: of about 48,000 compounds, about 13,000 (27%) showed an effect of 50% or more. The list shows a part of the results.
measuredEndpoint: Percent Effect

Answered cases to consult:
| compound | assayedTarget | measuredEndpoint | assayValue |
| --- | --- | --- | --- |
| CCOC(=O)COC1CCN(C(C)=O)CC(=O)N(C)c2ccccc21 (centres undefined) | Wolbachia pipientis | Percent Effect | 107.2% |
| COC1CCN(C(=O)NCC(N)=O)CC(=O)N(C)c2ccccc21 (centres undefined) | Wolbachia pipientis | Percent Effect | 98.17% |
| Cn1ccnc1CN1CCC2(CC1)CC(Oc1cccnc1)C2.O=C(O)C(F)(F)F.O=C(O)C(F)(F)F | Wolbachia pipientis | Percent Effect | -13.8% |

Pending compound:
Enquiry: Tell me the measured Percent Effect of Cc1oc(-c2ccco2)nc1CC(=O)N1CCC(CCO)C1 (centres undefined) , please.
Return: 7.972%

* * *

Test system: Wolbachia pipientis
protocolDescription: Anti-Wolbachia Cell-Based Screen
Type: functional
Parameters: scale not given: in the data most compounds retested in dose-response had high values
recordedConditions: 5 µM
Hit rate of the full screen: of about 48,000 compounds, about 13,000 (27%) showed an effect of 50% or more. The list shows a part of the results.
measuredEndpoint: Percent Effect (%)
Write the value in % as a bare number.

| compound | Percent Effect (%) |
| --- | --- |
| Cc1cccnc1NC(=O)C1CCCN1Cc1ccccc1 (stereo not drawn) | 28.43 |
| CNC(=O)C1CN(c2ncccn2)CCN1Cc1ccccc1 (stereo not drawn) | 91.24 |
| CC(C)c1noc(C(C)N2CCN(Cc3noc(C4CC4)n3)CC2)n1 (stereo not drawn) | 18.72 |
| O=C1NCCCCC1NC(=O)N1CCc2ccccc21 (stereo not drawn) | -9.694 |
| Cc1occc1C(=O)N1CCc2ncnc(C3CCOC3)c2CC1 (stereo not drawn) | -5.799 |

Enquiry: Tell me the measured Percent Effect of CCS(=O)(=O)c1ccc(N2CCC(NC(C)=O)CC2)cc1 , please.
Return: -5.151

Enquiry: Tell me the measured Percent Effect of O=c1c2ccccc2ncn1Cc1cc(C2CC2)[nH]n1 , please.
Return: 98.49

Enquiry: Tell me the measured Percent Effect of CCOC[C@H]1CC[C@H]2[C@H](CCN2C(=O)c2cnccn2)O1 , please.
Return: 103.2

* * *

System: Wolbachia pipientis
protocolDescription: Anti-Wolbachia Cell-Based Screen
Format: functional
Set-up: scale not given: in the data most compounds retested in dose-response had high values
recordedConditions: 5 µM
Among all 48,000 compounds or so, about 13,000 (27%) showed an effect of 50% or more. The list shows a part of the results.
measuredEndpoint: Percent Effect

| molecule | assayedTarget | Percent Effect |
| --- | --- | --- |
| CC(NC(=O)NCCCN1CCCCCC1)c1nncn1C (centres undefined) | Wolbachia pipientis | -1.343% |
| O=C(NCC1CCS(=O)(=O)C1)c1sccc1-c1ccc(F)cc1 (centres undefined) | Wolbachia pipientis | -6.4% |
| CNS(=O)(=O)c1cccc(C(C)NCc2ccc(C)o2)c1 (centres undefined) | Wolbachia pipientis | -6.612% |

Enquiry: Tell me the measured Percent Effect of CC(=O)N1CCN(C(=O)NCCCN(C)S(C)(=O)=O)CC1 , please.
Return: -13.58%

Enquiry: Tell me the measured Percent Effect of CN1Cc2ccccc2CC2(CCN(C(=O)N3CCOCC3)CC2)C1=O , please.
Return: 102.4%

Enquiry: Tell me the measured Percent Effect of CC(NC(=O)N1CCc2ccccc2C1)c1nncn1C (centres undefined) , please.
Return: -2.02%

Enquiry: Tell me the measured Percent Effect of CC(C)NC(=O)N1CCC2(CC1)Cc1ccccc1CNC2=O , please.
Return: 106.4%

Enquiry: Tell me the measured Percent Effect of Cc1ccc(C)c(OC2CCN(C(=O)NCC(=O)N3CCCC3)CC2)c1 , please.
Return: 99.13%

Enquiry: Tell me the measured Percent Effect of CC(C)NC(=O)N1CCC2(CC1)CCn1c(C3CC3)cnc12 , please.
Return: 5.233%

Enquiry: Tell me the measured Percent Effect of Cc1cc(C)n(Cc2cccc(C(=O)NCCN3CCOCC3)c2)n1 , please.
Return: -2.99%

Enquiry: Tell me the measured Percent Effect of CC(NC(=O)Nc1cc(F)ccc1N1CCCCC1)c1nncn1C (centres undefined) , please.
Return: -5.475%
